The following binders are shown together with reported kon values.
SUBJECT_OF_TEST: T1, human IL-33 (R&D Systems, #3625-IL-010/CF) (human) (UniProt O95760)
T1 sequence (looked up): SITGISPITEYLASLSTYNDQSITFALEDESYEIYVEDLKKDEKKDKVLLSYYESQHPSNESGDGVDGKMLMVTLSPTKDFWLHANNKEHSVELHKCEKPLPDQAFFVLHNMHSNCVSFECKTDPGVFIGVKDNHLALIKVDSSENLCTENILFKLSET
METHOD_SUMMARY: SPR Biacore T200, 37 C

BINDER: H4H9675P (antibody, from another filing, IgG4, V domains shown) VH: EVQLVESGGNLEQPGGSLRLSCTASGFTFSRSAMNWVRRAPGKGLEWVSGISGSGGRTYYADSVKGRFTISRDNSKNTLYLQMNSLSAEDTAAYYCAKDSYTTSWYGGMDVWGHGTTVTVSS VL: DIQMTQSPSSVSASVGDRVTITCRASQGIFSWLAWYQQKPGKAPKLLIYAASSLQSGVPSRFSGSGSGTDFTLTISSLQPEDFAIYYCQQANSVPITFGQGTRLEIK
kon, M⁻¹ s⁻¹: 4.06e+06

BINDER: H4H9670P (antibody, from another filing, IgG4, V domains shown) VH: EVQLVESGGGLVQPGGSLRLSCAASGFTLSSYAMSWVRQAPGKGLEWVSAISGSGGSTYYADSVKGRFTISRDNSKNSLYLQLNSLRAEDTAVYYCAKTLYTTSWYGGFQHWGQGTLVTVSS VL: DIQMTQSPSSVSASIGDRVTITCRASQGISSWLAWYQQKPGKVPKLLIYAASSLQSGFPSRFSGSGSGTDFTLTISSLQPEDFATYYCQQTHSFPWTVGQGTKVEIK
kon, M⁻¹ s⁻¹: 1.28e+06

BINDER: H4H9664P (antibody, from another filing, IgG4, V domains shown) VH: QVQLVESGGGVVQPGRSLRLSCAASGFTFSSYGLHWVRQSPGKGLEWVALISYDGSNKYYADSVKGRFTISRDNSKNTLYLQMNSLRPEDTAGYFCAKSLYTTSWYGGFDYWGQGTLVTVSS VL: DIQMTQSPSSVSASVGDRVTITCRASQGIRSWLAWYQQKPGKAPNLLIYAASSLQSGVPSRFSGSGSGTDFTLTISSLQPEDFATYYCQQANSFPPTFGPGTKVDIK
kon, M⁻¹ s⁻¹: 789000
